B1: TPR 5TU (parent)
chain: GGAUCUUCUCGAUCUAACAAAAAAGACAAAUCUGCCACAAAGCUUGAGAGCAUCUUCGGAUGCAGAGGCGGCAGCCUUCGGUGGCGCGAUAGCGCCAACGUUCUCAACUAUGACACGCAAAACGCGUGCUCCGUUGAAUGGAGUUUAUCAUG

Variants of: B1
Experiment: polymerase ribozyme fitness, log enrichment relative to wild type (log ratio); higher = more active; in vitro selection for triplet polymerase activity
Fewer inactive variants are shown than the library holds.
Classify as follows. Reported polymerase ribozyme fitness (log ratio) greater than or equal to -2: yes. Reported polymerase ribozyme fitness (log ratio) below: no.

G48A U61A C105G :: no

Does polymerase ribozyme fitness (log ratio) meet or surpass -2 for C35U A47G C99G G152A ?
no

Hello, I need to know if U4G U55G has measured polymerase ribozyme fitness (log ratio) not below -2. Thanks!
yes

State whether the measured polymerase ribozyme fitness (log ratio) reaches -2, counting equality as reaching it, for U77G A91G G152A
no

Could you tell me if the measured polymerase ribozyme fitness (log ratio) of A26C A52G reaches -2 or more?
yes
